test_details: Ratio of drug level in brain to plasma in mouse at 5 mg/kg, ip administered as single dose
Assay type: ADME, organism-based
condition_info: read-out: BPR
observed_property: Kp

Past entries and their recorded results:
# molecule_smiles, Kp
data = [
    ("Fc1ccc(Cl)c(F)c1-c1c(Cl)ncn1-c1ccc(Cl)cc1", 2.1),
    ("Fc1ccc(Br)c(F)c1-c1c(Cl)ncn1-c1ccc(Cl)cc1", 0.9),
    ("Fc1ccc(F)c(-c2c(Cl)ncn2-c2ccc(Cl)cc2)c1F", 2.8),
]

[A] Fc1cccc(F)c1-c1cnc(Cl)n1-c1ccc(Cl)cc1
[B] Fc1cc(-n2cnc(Cl)c2-c2c(F)ccc(F)c2F)ccc1Cl
Ask | Which entry has a larger number for Kp, A or B ? Could you answer with the label of the item you picked?
Reply | B
